quantity: melting point (°C)
Entry rule: numbers only, all in °C.

Illustrative cases are given below, each with its answer.
CC(=O)Oc1c(C)cc(OCC(O)CNC(C)C)c(C)c1C (stereo not drawn); 106
Cc1ccc(NC(=O)C=CC(=O)O)cc1; 205
CNCc1ccccc1; -24
O=C(Oc1ccccn1)Oc1ccccn1; 90
CCOP(=S)(NC(C)C)Oc1ccccc1C(=O)OC(C)C (stereo not drawn); -12
Nc1cc2ccccc2cc1O; 235

Kindly consider the entry below.
*Q* If you can, please state the reported melting point value of `O=c1oc2ccccc2cc1O` .
*A* 154

###

quantity: melting point (°C)
Entry rule: numbers only, all in °C.

Illustrative cases are given below, each with its answer.
CC(=O)c1cc2cc(Br)ccc2o1; 111
O=S(=O)(O)c1ccc2cc(O)ccc2c1; 125
CCCCCCCCCCCCCCCCCCN=C=O; 20
COC1=C(OC)C(=O)C(C)=C(C)C1=O; 62.5
O=C(O)c1ccc(C(=O)O)o1; 342
O=[N+]([O-])c1ccc(NN=C(c2ccccc2)c2ccccc2)cc1; 156

Kindly consider the entry below.
*Q* If you can, please state the reported melting point value of CCOC(=O)N1c2ccccc2C=CC1OCC (stereo not drawn) .
*A* 64.5
